Biological target: S2-receptor (Rattus norvegicus)
Construct: Caudal arteries from fasted male rats; from tissue; host or cells: rat caudal artery, helical strips
Experiment: antagonistic activity on the effect of serotonin on the caudal artery of the rat (caudal artery test)
Details: rat caudal artery strips; serotonin 40 ng/ml; 5 minutes after adding the drug; read-out: ED50 (minimal concentration which reduces the amplitude of the serotonin-induced contraction to at least 50% of its normal value) (converted)
quantity name: IC50 (pM)

a: Cc1ccc(C(=C2CCN(CCc3c(C)nc4n(c3=O)CCS4)CC2)c2ccc(F)cc2)cc1 [Compound 47]
b: Cc1nc2sccn2c(=O)c1CCN1CCC(=C(c2ccc(F)cc2)c2ccc(F)cc2)C(O)C1 (stereo not drawn) [Compound 60]
(Q) Returns: the argument ( a or b ) having the larger IC50. // caller expects the label of the chosen entry
(A) b
(b: 2.63 pM, a: 0.673 pM)

I: Cc1ccc(C(=C2CCN(CCc3c(C)nc4ccccn4c3=O)CC2)c2ccc(F)cc2)cc1 [Compound 41]
II: Cc1nc2n(c(=O)c1CCN1CCC(=C(c3ccc(F)cc3)c3cccc(C(F)(F)F)c3)CC1)CCS2 [Compound 118]
III: Cc1nc2scc(C)n2c(=O)c1CCN1CCC(=C(c2ccccc2)c2ccc(O)cc2)CC1 [Compound 72]
(Q) Ranking field: IC50; order: falling. The response must list the labels following the requested ordering.
(A) II, III, I
(II: 2.36 pM, III: 1.51 pM, I: 0.684 pM)

----------
Molecular target: S2-receptor (Rattus norvegicus, UniProt P14842)
Construct: Caudal arteries from fasted male rats; from tissue; host or cells: rat caudal artery, helical strips
Sequence (P14842 whole entry): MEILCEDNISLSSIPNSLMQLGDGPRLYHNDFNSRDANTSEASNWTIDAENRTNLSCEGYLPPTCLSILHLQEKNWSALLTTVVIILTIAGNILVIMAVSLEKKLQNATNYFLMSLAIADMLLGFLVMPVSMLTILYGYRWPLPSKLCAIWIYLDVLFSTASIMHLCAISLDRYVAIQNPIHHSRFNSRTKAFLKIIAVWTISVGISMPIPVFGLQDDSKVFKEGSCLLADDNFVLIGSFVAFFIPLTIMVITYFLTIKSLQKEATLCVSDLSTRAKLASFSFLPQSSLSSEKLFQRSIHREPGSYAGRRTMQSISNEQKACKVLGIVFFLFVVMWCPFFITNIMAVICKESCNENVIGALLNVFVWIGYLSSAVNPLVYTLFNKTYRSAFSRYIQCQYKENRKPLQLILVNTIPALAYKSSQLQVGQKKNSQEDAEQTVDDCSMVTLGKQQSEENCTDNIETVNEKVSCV
Experiment: antagonistic activity on the effect of serotonin on the caudal artery of the rat (caudal artery test)
Conditions: rat caudal artery strips; serotonin 40 ng/ml; 5 minutes after adding the drug; read-out: ED50 (minimal concentration which reduces the amplitude of the serotonin-induced contraction to at least 50% of its normal value) (converted)
quantity name: IC50 (pM)

>  <record smiles>
Cc1nc2scc(C)n2c(=O)c1CCN1CCC(=C(c2ccc(F)cc2)c2cccc(C(F)(F)F)c2)CC1

>  <IC50, pM>
2.31

$$$$

P: Cc1cc(C)n2c(=O)c(CCN3CCC(=C(c4ccc(F)cc4)c4ccc(F)cc4)CC3)c(C)nc2c1
Q: Cc1nc2n(c(=O)c1CCN1CCC(=C(c3ccccc3)c3cccc(C(F)(F)F)c3)CC1)CCS2
R: Cc1ccc(C(=C2CCN(CCc3c(C)nc4sccn4c3=O)CC2)c2ccccc2)cc1
(Q) Ranking field: IC50; order: falling. The response must list the labels following the requested ordering.
(A) P, Q, R
(P: 2.6 pM, Q: 1.39 pM, R: 0.158 pM)

----------
Target: S2-receptor (Rattus norvegicus, UniProt P14842)
Construct: Caudal arteries from fasted male rats; from tissue; host or cells: rat caudal artery, helical strips
Assay: antagonistic activity on the effect of serotonin on the caudal artery of the rat (caudal artery test)
Conditions: rat caudal artery strips; serotonin 40 ng/ml; 5 minutes after adding the drug; read-out: ED50 (minimal concentration which reduces the amplitude of the serotonin-induced contraction to at least 50% of its normal value) (converted)
quantity name: IC50 (pM)

>  <compound>
Cc1nc2scc(C)n2c(=O)c1CCN1CCC(=C(c2ccc(F)cc2)c2ccc(Br)cc2)CC1 [Compound 32]

>  <quantity name>
IC50

>  <unit symbol>
pM

>  <numeric value>
2.35

$$$$
>  <compound>
Cc1nc2n(c(=O)c1CCN1CCC(=C(c3ccc(F)cc3)c3ccc(Cl)cc3)CC1)CCCC2 [Compound 11]

>  <quantity name>
IC50

>  <unit symbol>
pM

>  <numeric value>
2.54

$$$$
>  <compound>
Cc1nc2n(c(=O)c1CCN1CCC(=C(c3ccccc3)c3ccccc3)CC1)CCCS2 [Compound 104]

>  <quantity name>
IC50

>  <unit symbol>
pM

>  <numeric value>
0.699

$$$$

P: Cc1ccc(C(=C2CCN(CCc3c(C)nc4ccccn4c3=O)CC2)c2ccc(C)cc2)cc1 [Compound 43]
Q: Cc1ccn2c(=O)c(CCN3CCC(=C(c4ccc(F)cc4)c4ccc(F)cc4)CC3)c(C)nc2c1 [Compound 59]
R: Cc1nc2ccccn2c(=O)c1CCN1CCC(=C(c2ccc(F)cc2)c2cccnc2)CC1 [Compound 57]
S: Cc1nc2n(c(=O)c1CCN1CCC(=C(c3ccc(F)cc3)c3ccc(Br)cc3)CC1)CCCS2 [Compound 33]
(Q) Write the entries in order, lowest recorded IC50 first. The response must list the labels following the requested ordering.
(A) Q, P, R, S
(Q: 0.659 pM, P: 1.53 pM, R: 2.86 pM, S: 5.05 pM)
